Measured pKi, listed per entry.
Target: MMP-12 (macrophage metalloelastase) (Homo sapiens, UniProt P39900)
Construct: made in house
Sequence (P39900 106-263 limits assumed): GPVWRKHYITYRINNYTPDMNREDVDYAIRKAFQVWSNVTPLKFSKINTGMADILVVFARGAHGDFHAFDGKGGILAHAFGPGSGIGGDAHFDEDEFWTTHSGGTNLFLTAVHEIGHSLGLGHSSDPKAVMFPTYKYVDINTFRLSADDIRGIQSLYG
Test: Determination of the inhibition constant (Ki) for MMP-12, fluorogenic substrate
Assay type: biochemical
Conditions: Table 1; Mca-Pro-Leu-Gly-Leu-Dpa-Ala-Arg-NH2, 25° C., pH 7.6
Where a name gives a salt, the structure may show the parent alone.
Please express pKi as -log10 of the molar concentration.

Need pKi of CC(C)[C@H](S)C(=O)N[C@@H](CCCCN)C(=O)N[C@@H](Cc1ccccc1)C(=O)O [Example 5, trifluoroacetic acid salt] , thanks.
6.82

Bench note: what pKi did CC(C)C[C@H](NC(=O)[C@@H](S)C(C)C)C(=O)N[C@@H](Cc1ccccc1)C(=O)O [Example 3] show?
7.85

Quick one: pKi for CSCC[C@H](NC(=O)[C@@H](S)C(C)C)C(=O)N[C@@H](Cc1ccccc1)C(=O)O [Example 4] ?
7.85

###

This listing pairs molecules with measured Ki.
Target: MMP-1 (interstitial collagenase) (Homo sapiens)
Construct: The active MMP-1 was obtained by treatment of proMMP-1 with trypsin; endogenous in cells; host or cells: human rheumatoid synovial fibroblasts stimulated with macrophage-conditioned medium; secreted proenzyme purified from culture medium
Assay: Determination of inhibition constant (Ki) for MMP-1, fluorogenic substrate
Format: biochemical
Conditions: Table 1; Mca-Pro-Leu-Gly-Leu-Dpa-Ala-Arg-NH2, 37° C., pH 7.6
Where a name gives a salt, the structure may show the parent alone.
Numbers only; they are read as nM.

Take a look at these entries with their results.
CC(C)[C@H](S)C(=O)N[C@@H](CCCCN)C(=O)N[C@@H](Cc1ccccc1)C(=O)O [Example 5, trifluoroacetic acid salt]	3910
CC(C)C[C@H](NC(=O)[C@@H](S)C(C)C)C(=O)N[C@@H](Cc1ccccc1)C(=O)O	518

Turning to the following molecule.
Give recorded Ki with MMP-1 (interstitial collagenase) (Homo sapiens) for the following molecule: CSCC[C@H](NC(=O)[C@@H](S)C(C)C)C(=O)N[C@@H](Cc1ccccc1)C(=O)O
153

###

The entries below come with measured pKi values attached.
Biological target: MMP-3 (Stromelysin-1) (Homo sapiens, UniProt P08254)
Construct: The active MMP-3 was obtained by treatment of proMMP-3 with trypsin; endogenous in cells; host or cells: human rheumatoid synovial fibroblasts stimulated with macrophage-conditioned medium; secreted proenzyme purified from culture medium
Sequence (P08254 100-477): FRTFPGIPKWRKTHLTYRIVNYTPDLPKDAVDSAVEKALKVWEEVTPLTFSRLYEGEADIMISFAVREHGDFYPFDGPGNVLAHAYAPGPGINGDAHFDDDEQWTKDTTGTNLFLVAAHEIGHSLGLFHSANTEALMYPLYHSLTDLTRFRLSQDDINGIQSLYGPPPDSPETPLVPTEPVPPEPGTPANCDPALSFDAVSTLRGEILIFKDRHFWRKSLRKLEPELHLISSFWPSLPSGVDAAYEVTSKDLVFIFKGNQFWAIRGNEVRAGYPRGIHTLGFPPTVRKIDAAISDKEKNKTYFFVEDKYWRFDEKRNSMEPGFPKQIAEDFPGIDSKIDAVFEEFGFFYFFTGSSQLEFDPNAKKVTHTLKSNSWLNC
Test: Determination of inhibition constant (Ki) for MMP-3, fluorogenic substrate
Type: biochemical
Conditions: Table 1; Mca-Pro-Leu-Gly-Leu-Dpa-Ala-Arg-NH2, 37° C., pH 7.6
Procedure: ProMMP-3 (EC3.4.24.17; Stromelysin-1) was purified from culture medium of human rheumatoid synovial fibroblasts stimulated with macrophage-conditioned medium according to Okada, Y. et al., J. Biol. Chem. 261, 14245-14255 (1986). […] The activated MMP-3 is assayed using a fluorogenic substrate, Mca-Pro-Leu-Gly-Leu-Dpa-Ala-Arg-NH2, Knight, C. […] Under these conditions, the measured Ki, app is close to true Ki. […]
Where a name gives a salt, the structure may show the parent alone.
Please report pKi as the negative decimal logarithm of the molar concentration, giving only the number.

See these solved cases before continuing.
CC(C)C[C@H](NC(=O)[C@@H](S)C(C)C)C(=O)N[C@@H](Cc1ccccc1)C(=O)O	5.85
CSCC[C@H](NC(=O)[C@@H](S)C(C)C)C(=O)N[C@@H](Cc1ccccc1)C(=O)O	6.35

Next item in the queue.
Would you kindly share the measured pKi for CC(C)[C@H](S)C(=O)N[C@@H](CCCCN)C(=O)N[C@@H](Cc1ccccc1)C(=O)O [Example 5, trifluoroacetic acid salt] ?
5.81

###

Target: MMP-2 (Homo sapiens, UniProt P08253)
Construct: made in house; host or cells: Pichia pastoris (strains KM71 / SMD1168, clone 24S; vector pHIL-D2)
Sequence (P08253 110-660): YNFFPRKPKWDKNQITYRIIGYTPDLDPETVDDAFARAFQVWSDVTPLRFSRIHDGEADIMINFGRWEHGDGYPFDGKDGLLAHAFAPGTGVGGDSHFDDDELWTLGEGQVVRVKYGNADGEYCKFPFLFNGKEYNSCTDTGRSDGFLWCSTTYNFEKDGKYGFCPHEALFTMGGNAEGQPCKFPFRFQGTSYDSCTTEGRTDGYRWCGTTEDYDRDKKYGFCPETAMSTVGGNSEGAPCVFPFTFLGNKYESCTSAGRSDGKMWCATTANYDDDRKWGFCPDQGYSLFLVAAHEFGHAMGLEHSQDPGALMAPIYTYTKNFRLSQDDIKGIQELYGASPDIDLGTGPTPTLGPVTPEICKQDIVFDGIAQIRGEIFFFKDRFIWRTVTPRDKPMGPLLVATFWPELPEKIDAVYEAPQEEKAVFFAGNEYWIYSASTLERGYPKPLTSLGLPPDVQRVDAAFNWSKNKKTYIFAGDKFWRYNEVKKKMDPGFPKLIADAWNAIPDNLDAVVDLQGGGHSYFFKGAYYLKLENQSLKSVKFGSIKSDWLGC
Test: Determination of inhibition constant (Ki) for MMP-2, fluorogenic substrate
Format: biochemical
Conditions: Table 2 (comparative); method of Example B, 37° C., pH 7.6
measured quantity: Ki (nM)
Kindly provide the numeric value in nM only, without the unit symbol.

What value of Ki has been recorded for this entry: CNC(=O)[C@H](Cc1ccccc1)NC(=O)[C@H](CCc1ccccc1)NC(=O)C(S)C(C)C (stereo partly shown) [Example 7, reference compound]
3.3

###

Biological target: MMP-12 (macrophage metalloelastase) (Homo sapiens, UniProt P39900)
Construct: made in house
Test: Determination of the inhibition constant (Ki) for MMP-12, fluorogenic substrate
Type: biochemical
Conditions: Table 2 (comparative); method of Example D, 25° C., pH 7.6
measured quantity: pKi
Expect pKi as a plain number equal to -log10 of the molar concentration.

What value of pKi has been recorded for this entry: CNC(=O)[C@H](Cc1ccccc1)NC(=O)[C@H](CCc1ccccc1)NC(=O)C(S)C(C)C (stereo partly shown) [Example 7, reference compound]
9.22

###

Biological target: MMP-1 (interstitial collagenase) (Homo sapiens, UniProt P03956)
Construct: The active MMP-1 was obtained by treatment of proMMP-1 with trypsin; endogenous in cells; host or cells: human rheumatoid synovial fibroblasts stimulated with macrophage-conditioned medium; secreted proenzyme purified from culture medium
Sequence (P03956 100-469): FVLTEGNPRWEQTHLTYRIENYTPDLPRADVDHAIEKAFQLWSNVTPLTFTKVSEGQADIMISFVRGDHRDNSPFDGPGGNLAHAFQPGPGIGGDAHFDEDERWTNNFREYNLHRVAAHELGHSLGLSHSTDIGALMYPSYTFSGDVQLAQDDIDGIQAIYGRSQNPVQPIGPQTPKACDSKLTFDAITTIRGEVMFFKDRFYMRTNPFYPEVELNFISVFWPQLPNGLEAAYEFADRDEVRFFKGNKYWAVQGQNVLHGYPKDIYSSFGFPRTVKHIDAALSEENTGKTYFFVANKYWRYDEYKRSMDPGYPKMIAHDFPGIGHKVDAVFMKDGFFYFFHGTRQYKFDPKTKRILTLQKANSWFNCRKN
Assay: Determination of inhibition constant (Ki) for MMP-1, fluorogenic substrate
Assay type: biochemical
Conditions: Table 2 (comparative); method of Example A, 37° C., pH 7.6
measured quantity: Ki (µM)
Answer in µM, number only, no unit symbol.

Which measured Ki value corresponds to CNC(=O)[C@H](Cc1ccccc1)NC(=O)[C@H](CCc1ccccc1)NC(=O)C(S)C(C)C (stereo partly shown) [Example 7, reference compound] ?
0.465

###

Reported pKi values for a set of compounds
Biological target: MMP-2 (Homo sapiens, UniProt P08253)
Construct: made in house; host or cells: Pichia pastoris (strains KM71 / SMD1168, clone 24S; vector pHIL-D2)
Sequence (P08253 110-660): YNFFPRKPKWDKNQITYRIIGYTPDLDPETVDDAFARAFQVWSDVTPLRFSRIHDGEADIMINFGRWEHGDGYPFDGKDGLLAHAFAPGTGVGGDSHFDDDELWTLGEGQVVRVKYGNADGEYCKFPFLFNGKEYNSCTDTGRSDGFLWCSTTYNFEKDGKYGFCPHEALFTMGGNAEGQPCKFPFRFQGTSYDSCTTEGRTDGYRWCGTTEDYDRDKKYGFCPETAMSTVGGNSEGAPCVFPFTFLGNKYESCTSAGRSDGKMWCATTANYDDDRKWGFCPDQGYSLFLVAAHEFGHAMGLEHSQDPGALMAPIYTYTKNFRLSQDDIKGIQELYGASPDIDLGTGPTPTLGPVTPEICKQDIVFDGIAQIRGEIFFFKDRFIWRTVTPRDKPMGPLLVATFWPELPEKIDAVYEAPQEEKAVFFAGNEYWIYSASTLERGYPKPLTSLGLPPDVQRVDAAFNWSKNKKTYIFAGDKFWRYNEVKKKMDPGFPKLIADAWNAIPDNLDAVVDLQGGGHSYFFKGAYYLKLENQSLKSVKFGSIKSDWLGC
Test: Determination of inhibition constant (Ki) for MMP-2, fluorogenic substrate
Type: biochemical
Details: Table 1; Mca-Pro-Leu-Gly-Leu-Dpa-Ala-Arg-NH2, 37° C., pH 7.6
Counter-ions that a name gives are not always drawn.
The meaning of pKi here: minus log10 of the concentration in molar units.

CSCC[C@H](NC(=O)[C@@H](S)C(C)C)C(=O)N[C@@H](Cc1ccccc1)C(=O)O	6.10
CC(C)C[C@H](NC(=O)[C@@H](S)C(C)C)C(=O)N[C@@H](Cc1ccccc1)C(=O)O	6.11

Moving on to another compound below.
Item under review: CC(C)[C@H](S)C(=O)N[C@@H](CCCCN)C(=O)N[C@@H](Cc1ccccc1)C(=O)O [Example 5, trifluoroacetic acid salt] . Reported pKi?
5.76
